system: Staphylococcus aureus; assay: Antibacterial activity against Staphylococcus aureus ATCC 29213 after 24 hrs by two fold serial dilution technique; format: functional; details: ATCC 29213, 24 h
Assay endpoint: MIC (µg/mL)
Provide the reading as a plain figure in µg/mL.

>>> quantitative_readout("Nc1n[nH]c(NC(=S)Nc2ccc(C(=O)NCC(=O)O)cc2)c1/N=N/c1ccc(Cl)cc1")
6.25
>>> quantitative_readout("O=C(O)CNC(=O)c1ccc(NC(=S)Nc2ccc(C(=O)NCC(=O)O)cc2)cc1")
50
>>> quantitative_readout("O=C(O)CNC(=O)c1ccc(NC(=S)Nc2ccc(NC(=S)Nc3ccc(C(=O)NCC(=O)O)cc3)cc2)cc1")
50
>>> quantitative_readout("O=C(O)CNC(=O)c1ccc(NC(=S)Nc2cccc(F)c2)cc1")
50
>>> quantitative_readout("O=C(O)CNC(=O)c1ccc(NC(=S)Nc2cccc(Br)c2)cc1")
6.25
>>> quantitative_readout("O=C(O)CNC(=O)c1ccc(NC(=S)Nc2ccc(S(=O)(=O)Nc3ncccn3)cc2)cc1")
3.12

Now, please, on to the next compound.
Exam item: Look up and report measured MIC for this entry: `O=C(O)CNC(=O)c1ccc(NC(=S)NNS(=O)(=O)c2ccccc2)cc1`
Marked response: 6.25

Measured values drawn from ChEMBL document CHEMBL2385069 for this set.
